# assay_explanation: NCI Yeast Anticancer Drug Screen. Data for the rad50 strain (AID 155);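 further: 0% = growth of vehicle-only cultures of the same strain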
# stated_conditions: S. cerevisiae rad50 strain growth inhibition; at 50.0 µM; hits give high values
The panel holds about 79,000 compounds, 15% with a hit somewhere; the sample as a whole holds those more often.
endpoint_name: growth inhibition (%)

C/C(=N\N=C(/C)c1ccc(-c2ccccc2)cc1)c1ccc(-c2ccccc2)cc1 : 1.2
CC(/C=C/C(=O)c1ccccc1)=C\C=N\N(C)c1ccccc1 : 17.2
C=COS(=O)O : -0.65
N#CCCCCCCCCC(=O)O : -14.6
CCCCCCCCCCCOC(=O)CCl : 1.4
C/C(=N\N=C(/C)c1ccc(O)cc1O)c1ccc(O)cc1O : 13.7
O=C(Nc1c(Cl)cccc1Cl)Oc1cccnc1 : 0

###

# assay_explanation: NCI Yeast Anticancer Drug Screen. Data for the sgs1 mgt1 strain (AID 161);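 further: 0% = growth of cultures given vehicle only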
# stated_conditions: S. cerevisiae sgs1 mgt1 strain, at 50.0 µM, hits give high values
Compounds without any hit were thinned out: in the full panel of roughly 79,000, 15% have a hit.
endpoint_name: growth inhibition (%)

NC(=O)NNC(=O)c1nc[nH]c1[N+](=O)[O-] : 11.6
COC(=O)c1c(C)oc(C)c1-c1ccc(OCc2ccccc2)c(OC)c1 : -35.8
O=C1/C(=C/c2ccco2)CC/C1=C\c1ccco1 : 29
Oc1ccccc1-c1cc(-c2ccccc2)nc(NCCCCNc2nc(-c3ccccc3)cc(-c3ccccc3O)n2)n1 : -14.7
CSc1[nH]c2ncnc(Cl)c2c1C#N : 15.9
CCSc1nc2ccc(CN3C(=O)c4ccccc4C3=O)cc2s1 : -4.6
NC(=O)c1ccc2c(ccc3ccccc32)c1 : 5.05
Cc1ccc(Nc2nc(C)c(C(=O)CC(=O)C(=O)Nc3c(C)cccc3C(C)(C)C)s2)cc1 : -0.4
Cc1cc(N(CCC#N)CCC#N)ccc1/C=C/C(=O)Nc1cccc(Cl)c1 : 3.55
CCCCCCCCCCCCn1[nH]c(C)c(C(=S)SCCCCCCCC)c1=O : -0.9
Cc1c2ccccc2nc(CSCCO)[n+]1[O-] : -7.95
CCOC(=O)CNCc1ccc(Cl)c(Cl)c1 : 28.2
CSC1(C(=O)O)C2CCC3C2CCC31 (stereo unspecified) : 9.95
Cc1ccc(OC/C=C/c2ccc([N+](=O)[O-])cc2)cc1 : -7.4
CC(=O)NC(C(=O)O)C(C)(C)S (stereo unspecified) : -4.7
O=C1CN(/N=C/c2ccc(-c3ccc(Cl)c(Cl)c3)o2)C(=O)N1 : 29.1
CC(=O)C(N)C(C)C (stereo unspecified) : 19.2
CCOC(=O)C1C(C)=CC(=O)CC1C (stereo unspecified) : 21.9
CC1(C)CO/C(=C/C(=O)c2ccccc2)N1C(=O)c1ccccc1 : -6.15
CC(Cl)CN1c2ccccc2Sc2ccc(Cl)cc21 (stereo unspecified) : 2.35
CC(=O)OC1CCC2(C)C(CCC3C2C(=O)C(Br)C2(C)C(C(C)=O)CCC32)C1 (stereo unspecified) : 7.95
CCCCCCCCCC(=O)N(C)OC : 7.05
O=C(N/N=C\c1ccc(Cl)cc1)Nc1ccc2ccccc2c1 : 4.35
COc1ccc(C2C(C)C(=O)C(C)C(c3ccc(OC)cc3)N2N=O)cc1 (stereo unspecified) : 15.6
CC(C)C(=O)OCc1ccccc1 : -6.75
CCC1(C)N=C(C)C(C)S1 (stereo unspecified) : -13.7

###

# assay_explanation: NCI Yeast Anticancer Drug Screen. Data for the cln2 rad14 strain (AID 165);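 further: 0% = growth equal to vehicle treated cultures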
# stated_conditions: S. cerevisiae cln2 rad14 strain, at 50.0 µM, hits give high values
Compounds without any hit were thinned out: in the full panel of roughly 79,000, 15% have a hit.
Catalogue of growth inhibition readings, one per entry.
endpoint_name: growth inhibition (%)

CCCCCOc1ccc(C(=O)OC)cc1 : -22.8
O=C(O)c1ccc(C(=O)Nc2cccc3ccccc23)c(C(=O)O)c1 : 6.35
CC1SC2=NC3=C(c4ccccc4C3=O)C(c3ccc(Br)cc3)N2C1=O (stereo unspecified) : -15.8
COc1cc2cc(C)c(C)cc2cc1OC : -22.9
COc1ccccc1C1C2=C(COC2=O)Oc2cc3c(cc21)OCO3 (stereo unspecified) : 3.75
CCOc1c[n+](C)c(/C=C/c2ccccc2)s1 : -9.3
CC1N=C(SCc2ccc(Cl)cc2)N2C(C)N=C(SCc3ccc(Cl)cc3)N12 (stereo unspecified) : 2.7
CC1CC[N-]CC1.CC1CC[N-]CC1.[Cl][Pt+2][Cl] : -34
CCN(CC)CCn1c(=O)c2c(ncn2C)n(C)c1=O : -36.3
O=C1c2sccc2[C@H](NC(=O)C(F)(F)F)[C@@H]1Cl : 25.1
c1coc(C2SCSCS2)c1 : -13.5
COc1ccc(OC(=O)Nc2cccc(C(C)=O)c2)cc1 : 1.8
N#C/C(=C\n1c(=S)[nH]c2ccc([N+](=O)[O-])cc21)c1cccc(Cl)c1 : 3.75
COC(OC)c1cc(C(=O)O)c2ccccc2n1 : -4.6
O=C1CC(C(=O)O)Cc2c(Br)ccc(O)c21 (stereo unspecified) : -3.6
CCC(C(=O)O)c1cccc2c(C)ccc(C)c12 (stereo unspecified) : 23.2
c1ccc(-c2cc(-c3ccccc3)n(-c3ccccc3)c2-c2ccccc2)cc1 : -5.35
C/C=C1/CC(C)C(C)(O)C(=O)OCC2C(O)CN3CCC(OC1=O)C23 (stereo unspecified) : -10.3
CC(=O)Oc1ccc2cc(NC(=O)c3ccccc3)c(=O)oc2c1 : -62.4
O=[N+]([O-])[C@@H]1C[C@@H]2C=C[C@H]1CC2 : -1.3
CCN(CC)CC(O)CO (stereo unspecified) : 5.9
CC1OC(=O)c2cc3ccccc3cc2O1 (stereo unspecified) : -31.1
COC(=O)C(Cl)(Cl)c1nc(NC(C)=O)[nH]c(=O)c1Cl : -20
CCC(=O)OC1=CC(=O)c2ccccc2C1=O : 8.6
CCOC(=O)Cn1c(C)nc2nn(Cc3ccccc3)cc2c1=O : -1.35
CCCCC(CC)C1OCCS1 (stereo unspecified) : 1.9

###

# assay_explanation: NCI Yeast Anticancer Drug Screen. Data for the mec2-1 strain (AID 157)
# stated_conditions: S. cerevisiae mec2-1 strain, at 50.0 µM, hits give high values
Compounds without any hit were thinned out: in the full panel of roughly 79,000, 15% have a hit.
endpoint_name: growth inhibition (%)

C#CC(OC(=O)NC(C(=O)OC)C(C)C)(c1ccccc1)c1ccccc1 (configuration not stated) : -10.3
Cc1ccc(NC(=S)Nc2cccc(C(F)(F)F)c2)cc1C : -4.45
Cc1cc(C)c(C(=O)/C=C(\N)C(=O)c2c(C)cc(C)cc2C)c(C)c1 : 0
O=C1C(=S)Nc2cccc(F)c21 : 45
COc1cc2c[n+]3c4c(cccc4c2cc1OC)CC3 : 0.55
CN(C)CCNC(=O)c1cnn(C)c1[N+](=O)[O-] : 8.75
C[n+]1ccc(/C=C/c2ccc(O)c(O)c2)c2ccccc21 : 33.5
CN(C)CCNC(=O)CN : -12.2
Cc1ccc(CCOS(=O)(=O)c2ccc(C)cc2)cc1 : -26.5
Cc1cc(N(CCC#N)CCC#N)ccc1/C=C1N=C(/C=C\c2ccccc2)N(c2ccc(C(=O)O)cc2)C\1=O : -45.5
CN1C=CC(=Cc2ccccc2)C=C1 : 5.85
CCCCCC/C=N/Nc1ccc([N+](=O)[O-])cc1[N+](=O)[O-] : -18.9

###

# assay_explanation: NCI Yeast Anticancer Drug Screen. Data for the rad50 strain (AID 155);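 further: 0% = growth of vehicle-only cultures of the same strain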
# stated_conditions: S. cerevisiae rad50 strain growth inhibition; at 50.0 µM; hits give high values
About 79,000 compounds went through this panel and 15% of them were active in at least one assay; those are over-represented in the sample as a whole.
Catalogue of growth inhibition readings, one per entry.
endpoint_name: growth inhibition (%)

Cc1ccc2nc(CC(=O)c3ccc4ccccc4c3)c(=O)[nH]c2c1 : 6.4
C(=N\c1nccs1)/c1ccc(/C=N/c2nccs2)cc1 : -5.2
O=C(O)Cc1ccc(-c2ccccc2)cc1 : 29.1
CCOC(=O)NN1C(=O)c2cccc3c([N+](=O)[O-])ccc(c23)C1=O : 86.2
O=C1CN(Cc2ccc(Cl)cc2)CC(=O)N2CCCN12 : 20.8
O=C1C2C3C=CC(CC3)C2C(=O)C2C3C=CC(C3)C12 (stereo unspecified) : 1.15
CC(C)(C)c1ccc(OCCOCCCl)c(Cl)c1 : 17.1
OCC(O)C(O)C(O)CN=Cc1ccccc1O (stereo unspecified) : -7.45
COc1cc(OC)c(NC(=O)/C=C/c2ccccc2)cc1Cl : -3.45
Clc1ccccc1OCc1cnc[nH]1 : -4.05
O=C(Nc1ccn(CCOC(=O)c2ccccc2)c(=O)n1)c1ccccc1 : -9.4
Cc1ccc(N=NC(C2=NC(=O)CS2)c2nc3ccccc3[nH]2)cc1 (stereo unspecified) : -55
CC1(C)OC1(C(=O)C=[N+]=[N-])c1ccccc1 (stereo unspecified) : -14.8
CC1CC([NH-])C([NH-])C(C)(C)C1.[Cl][Pt+2][Cl] (stereo unspecified) : -4.35
COC(=O)CCCN1C(=O)c2ccccc2C1=O : -8.15
COC(OC)(c1ccccc1)c1ccccc1 : -33
O=C(CCc1n[nH]c(=S)o1)Nc1ccccc1 : 18.4
CCOC(=O)C(NC(=O)Cc1ccccc1)C1NC(C(=O)O)CS1 (stereo unspecified) : 19.9
COC1/C=C\OC2(C)Oc3c(C)c(O)c4c(O)c(c(/C=N\NC(=O)CC(=O)N/N=C/c5c6c(O)c7c(O)c(C)c8c(c7c5O)C(=O)C(C)(O/C=C/C(OC)C(C)C(OC(C)=O)C(C)C(O)C(C)C(O)C(C)/C=C/C=C(C)C(=O)N6)O8)c(O)c4c3C2=O)NC(=O)/C(C)=C\C=C/C(C)C(O)C(C)C(O)C(C)C(OC(C)=O)C1C (stereo unspecified) : -4.5
Cc1ccccc1OS(=O)(=O)c1ccc(Br)cc1 : -4.2
CN(C)OC(=O)Nc1cccc([N+](=O)[O-])c1 : 19.1
NNC(=O)c1nc[nH]c1C(=O)NN : 2.95
CCOC(=O)C/C(C)=N\NC(N)=O : 38.2
O=C(CCCCCCCCC(=O)OCc1ccccc1)OCc1ccccc1 : 19.2
CC(=O)OC1CC[C@@]2(C)C(CC[C@]3(C)C2CC=C2[C@@H]4C(C)[C@H](C)CCC4(C)CCC23C)[C@@]1(C)C(=O)O (stereo partly specified) : 1.05
Cc1ccc(Cc2cc(=O)[nH]c(=O)[nH]2)cc1 : 0.2
OC(c1cccnc1)C(CCc1ccccn1)c1ccccn1 (stereo unspecified) : 2.65
Cn1c(=O)oc2cc(C(O)CN3CCN(Cc4ccccn4)CC3)c(Cl)cc21 (stereo unspecified) : -19.6
O=C(O)CCC1(C(=O)O)NCCc2c1[nH]c1ccccc21 (stereo unspecified) : 8.1
CCCN1COC(OCCN(CC)CC)C(C)(C)C1 (stereo unspecified) : 7.15
Cc1ccc(C2(c3ccc(Cl)cc3)c3ccccc3C3=NCCN32)cc1 (stereo unspecified) : 19.9
C(=C/c1ccc2c(c1)OCO2)/c1ccccc1 : -16.1
COC(=O)c1ccc(C(=O)OC)c2nc3cc(C)ccc3nc12 : -39.1
S=C1SCN(C2CCCCCCCCCCC2)CN1C1CCCCCCCCCCC1 : -52.5
COc1ccc(C23OCN(c4ccccc4)C2(c2ccc(OC)cc2)c2ccccc2N3C)cc1 (stereo unspecified) : 4.15
COc1cc2c(c3c1c(=S)c1ccccc1n3C)C=CC(C)(C)O2 : 59.5
O=C(O)/C=C\C(=O)Nc1ccccc1 : 10.2
COCC(OC)C(Cl)C(=O)Nc1ccc(Br)cc1 (stereo unspecified) : 14.6
O=c1c2ccccc2[nH]c2ccc(O)cc12 : 1.45
NNc1nc2ccccc2[nH]1 : 16.6
CSc1ccc2c(=O)c(C(=O)O)c[nH]c2c1 : -0.05
CCCCOc1ccc(Nc2c(C(=O)OCC)cnc3cc4c(cc23)OCO4)cc1 : -3.3
Cc1cc(=O)[nH]c(/N=C(/N)N(C)C)n1 : 4.15
COc1c([N+](=O)[O-])ccc(C(OC(C)=O)OC(C)=O)c1OC(C)=O : 33.9
COc1ccc(CSC(=S)Nc2ccc(N=Nc3ccccc3)cc2)cc1 : 33.7
CC(=O)CC(C)(C)OCc1ccccc1 : -21.9

Reference source for all entries: PubChem BioAssay (NCI)
